System: MCF7
Assay: Cytotoxicity against human MCF7 cells assessed as growth inhibition after 72 hrs by calcein AM staining-based fluoroscence assay
Assay type: functional, cell-based
Details: MCF7, 72 h
Quantity name: IC50 (nM)
Answers are plain numbers, in nM.

Here's what some known entries look like.
{"columns": ["Compound", "IC50 / nM"],
 "data": [
  ["NC1CCC(Nc2nc(NCc3ccc(-c4ccoc4)cc3)c3ncn(C4CCCC4)c3n2)CC1 (stereo not drawn)", 247],
  ["NC1CCC(Nc2nc(NCc3ccc(Br)nc3)c3ncn(C4CCCC4)c3n2)CC1 (stereo not drawn)", 483]
]}

Now look at this one.
# query: IC50 of entry COc1ccccc1-c1ccc(CNc2nc(NC3CCC(N)CC3)nc3c2ncn3C2CCCC2)cc1 (stereo not drawn) 303

###

Assign log10 of IC50 to each entry below.
Molecular target: Cyclin-dependent kinase 1 (Homo sapiens)
Sequence (P06493 whole entry): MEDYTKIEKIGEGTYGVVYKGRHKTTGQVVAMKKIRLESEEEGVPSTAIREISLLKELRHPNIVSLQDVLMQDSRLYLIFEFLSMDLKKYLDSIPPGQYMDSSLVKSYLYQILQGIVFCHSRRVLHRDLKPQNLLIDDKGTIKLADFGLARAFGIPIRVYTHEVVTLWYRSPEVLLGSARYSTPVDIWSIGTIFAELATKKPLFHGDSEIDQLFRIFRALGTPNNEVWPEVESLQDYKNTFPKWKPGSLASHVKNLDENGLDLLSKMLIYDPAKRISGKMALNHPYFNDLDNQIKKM
Test: Inhibition of human recombinant CDK1
Scale: log10; quantity: IC50; unit before log: nM

Here is how some compounds turned out for log10 of IC50.
{"columns": ["Compound", "Test target", "Recorded measurement"],
 "data": [
  ["Nc1ccccc1CNc1nc(NC2CCC(N)CC2)nc2c1ncn2C1CCCC1 (stereo unspecified)", "Cyclin-dependent kinase 1 (Homo sapiens)", 1.97],
  ["NC1CCC(Nc2nc(NCc3ccc(-c4ccccc4)nc3)c3ncn(C4CCCC4)c3n2)CC1 (stereo unspecified)", "Cyclin-dependent kinase 1 (Homo sapiens)", 2.26],
  ["NC1CCC(Nc2nc(NCc3cc(Cl)ccc3O)c3ncn(C4CCCC4)c3n2)CC1 (stereo unspecified)", "Cyclin-dependent kinase 1 (Homo sapiens)", 1.36],
  ["NC1CCC(Nc2nc(NCc3ccc(-c4ccccc4O)cc3)c3ncn(C4CCCC4)c3n2)CC1 (stereo unspecified)", "Cyclin-dependent kinase 1 (Homo sapiens)", 2.89]
]}

Request the reported log10 of IC50 associated with CC(C)(O)CNc1nc(NCc2ccc(-c3ccco3)nc2)c2ncn(C3CCCC3)c2n1 2.74

###

Molecular target: Cyclin-dependent kinase 2/cyclin E1 (Homo sapiens, UniProt P24941)
Assay: Inhibition of human recombinant CDK2/Cyclin E expressed in baculovirus infected sf9 cells using histone H1 as substrate
Quantity name: IC50 (nM)
Give bare numbers, in nM.

These solved cases illustrate the format of a correct answer.
{"columns": ["Compound", "Recorded measurement"],
 "data": [
  ["NC1CCC(Nc2nc(NCc3ccc(-c4cccs4)nc3)c3ncn(C4CCCC4)c3n2)CC1 (centres undefined)", 4],
  ["COc1ccccc1-c1ccc(CNc2nc(NC3CCC(N)CC3)nc3c2ncn3C2CCCC2)cn1 (centres undefined)", 34],
  ["NC1CCC(Nc2nc(NCc3ccc(-c4ccccc4O)nc3)c3ncn(C4CCCC4)c3n2)CC1 (centres undefined)", 7.1],
  ["Nc1ccccc1-c1ccc(CNc2nc(NC3CCC(N)CC3)nc3c2ncn3C2CCCC2)cn1 (centres undefined)", 10],
  ["NC1CCC(Nc2nc(NCc3ccc(-c4cccs4)cc3)c3ncn(C4CCCC4)c3n2)CC1 (centres undefined)", 20],
  ["NC1CCC(Nc2nc(NCc3ccc(-c4ccoc4)nc3)c3ncn(C4CCCC4)c3n2)CC1 (centres undefined)", 8]
]}

For each listed entry, give its IC50.
1. NC1CCC(Nc2nc(NCc3ccc(-c4ccccc4O)cc3)c3ncn(C4CCCC4)c3n2)CC1 (centres undefined)
2. NC1CCC(Nc2nc(NCc3ccc(-c4ccccc4)cc3)c3ncn(C4CCCC4)c3n2)CC1 (centres undefined)
3. NC1CCC(Nc2nc(NCc3ccc(-c4cccc(F)c4)nc3)c3ncn(C4CCCC4)c3n2)CC1 (centres undefined)

[68, 26, 14]
